Data origin: the NIST ThermoML archive (doi:10.1021/je501162f)

conditions: 313.15 K; Liquid; Pendant drop shape
assay_endpoint: surface tension liquid-gas (mN/m)

CCCCCCCCn1cc[n+](C)c1.NCC(=O)[O-] [1-methyl-3-octylimidazolium glycinate] ... 32.81
CCCCCCCC[n+]1ccn(C)c1.C[C@H](N)C(=O)[O-] [1-methyl-3-octylimidazolium L-alaninate] ... 27.23
CCCCCCCC[n+]1ccn(C)c1.N[C@@H](CO)C(=O)[O-] [1-methyl-3-octyl-1H-imidazol-3-ium L-serinate] ... 32.2
CCCCCCCCn1cc[n+](C)c1.O=C([O-])[C@@H]1CCCN1 [1-methyl-3-octyl-1H-imidazol-3-ium L-prolinate] ... 28.46
CCCCCCCC[n+]1ccn(C)c1.NC(=O)C[C@H](N)C(=O)[O-] [1-methyl-3-octylimidazolium L-asparaginate] ... 32.96

###

details: 343.15 K; Liquid; Pendant drop shape
assay_endpoint: surface tension liquid-gas (mN/m)

CCCCCCCCn1cc[n+](C)c1.NCC(=O)[O-] [1-methyl-3-octylimidazolium glycinate] ... 28.75
CCCCCCCCn1cc[n+](C)c1.O=C([O-])[C@@H]1CCCN1 [1-methyl-3-octyl-1H-imidazol-3-ium L-prolinate] ... 27.62
CCCCCCCC[n+]1ccn(C)c1.C[C@H](N)C(=O)[O-] [1-methyl-3-octylimidazolium L-alaninate] ... 25.55
CCCCCCCC[n+]1ccn(C)c1.NC(=O)C[C@H](N)C(=O)[O-] [1-methyl-3-octylimidazolium L-asparaginate] ... 30.88
CCCCCCCC[n+]1ccn(C)c1.N[C@@H](CO)C(=O)[O-] [1-methyl-3-octyl-1H-imidazol-3-ium L-serinate] ... 30.01

###

details: 293.15 K; Liquid; Pendant drop shape
assay_endpoint: surface tension liquid-gas (mN/m)

CCCCCCCCn1cc[n+](C)c1.NCC(=O)[O-] [1-methyl-3-octylimidazolium glycinate] ... 35.37
CCCCCCCC[n+]1ccn(C)c1.C[C@H](N)C(=O)[O-] [1-methyl-3-octylimidazolium L-alaninate] ... 28.24
CCCCCCCC[n+]1ccn(C)c1.N[C@@H](CO)C(=O)[O-] [1-methyl-3-octyl-1H-imidazol-3-ium L-serinate] ... 34.29
CCCCCCCCn1cc[n+](C)c1.O=C([O-])[C@@H]1CCCN1 [1-methyl-3-octyl-1H-imidazol-3-ium L-prolinate] ... 29.28
CCCCCCCC[n+]1ccn(C)c1.NC(=O)C[C@H](N)C(=O)[O-] [1-methyl-3-octylimidazolium L-asparaginate] ... 34.32

###

details: 353.15 K; 101.33 kPa; Liquid; Vibrating tube method
assay_endpoint: mass density (kg/m3)

CCCCCCCCn1cc[n+](C)c1.O=C([O-])[C@@H]1CCCN1 [1-methyl-3-octyl-1H-imidazol-3-ium L-prolinate] ... 1026.4
CCCCCCCC[n+]1ccn(C)c1.C[C@H](N)C(=O)[O-] [1-methyl-3-octylimidazolium L-alaninate] ... 966.3
CCCCCCCC[n+]1ccn(C)c1.N[C@@H](CO)C(=O)[O-] [1-methyl-3-octyl-1H-imidazol-3-ium L-serinate] ... 1036.9
CCCCCCCC[n+]1ccn(C)c1.NC(=O)C[C@H](N)C(=O)[O-] [1-methyl-3-octylimidazolium L-asparaginate] ... 1039
CCCCCCCCn1cc[n+](C)c1.NCC(=O)[O-] [1-methyl-3-octylimidazolium glycinate] ... 1004.4

###

settings: 293.15 K; 101.33 kPa; Liquid; Vibrating tube method
assay_endpoint: mass density (kg/m3)

CCCCCCCC[n+]1ccn(C)c1.C[C@H](N)C(=O)[O-] [1-methyl-3-octylimidazolium L-alaninate] ... 985.3
CCCCCCCC[n+]1ccn(C)c1.N[C@@H](CO)C(=O)[O-] [1-methyl-3-octyl-1H-imidazol-3-ium L-serinate] ... 1075.6
CCCCCCCCn1cc[n+](C)c1.O=C([O-])[C@@H]1CCCN1 [1-methyl-3-octyl-1H-imidazol-3-ium L-prolinate] ... 1064.5
CCCCCCCCn1cc[n+](C)c1.NCC(=O)[O-] [1-methyl-3-octylimidazolium glycinate] ... 1041.7
